System: NCI-H23 lung
Assay: NCI tumour cell line growth inhibition, 48 h
Reported GI50 values for the following compounds.

Previously resolved entries follow.
>  <compound>
Cc1ccc2c(c1)C(=O)/C(=C/c1cccc(OCC(=O)c3ccc(Cl)cc3)c1)CS2

>  <GI50>
3.03 µM

$$$$
>  <compound>
Fc1ccc(-c2c(-c3ccncc3)[nH]c3cccnc23)cc1

>  <GI50>
> 25 µM

$$$$
>  <compound>
CCN(CC)CCOc1ccc(NC(=O)C(C(C)C)N2C(=O)/C(=C/c3ccc(Br)cc3)SC2=S)cc1 (stereo unspecified)

>  <GI50>
3.74 µM

$$$$
>  <compound>
CN(C)c1ccc(/C=N/n2c(CCCCc3n[nH]c(=S)n3/N=C/c3ccc(N(C)C)cc3)n[nH]c2=S)cc1

>  <GI50>
> 100 µM

$$$$
>  <compound>
CN(CCCCCCCCNc1ccnc2ccccc12)Cc1ccc(-c2ccc(-c3ccc(C#N)cc3)s2)cc1

>  <GI50>
0.84 µM

$$$$

// GI50 lookup, key: `CCCn1cc(/C=N\N=C2\C(=O)Nc3ccc(C)cc32)c2ccccc21` 3.13 µM

Looking for the measured GI50 of `COc1ccc2[nH]cc(C3(c4c[nH]c5ccc(OC)cc45)C(=O)Nc4ccc(Cl)cc43)c2c1` , can you help? 3.03 µM

----------
Test system: DMS 273 small cell lung
Experiment: NCI tumour cell line growth inhibition, 48 h
measured-metric: TGI

>  <compound>
CCOC(=O)C(C(=O)OCC)S(C)(=O)=O

>  <tested-target>
DMS 273 small cell lung

>  <TGI>
> 100 µM

$$$$
>  <compound>
N#CCCN(c1ccc(C=Nc2ccc(C(=O)O)cc2)cc1)S(=O)(=O)c1ccccc1

>  <tested-target>
DMS 273 small cell lung

>  <TGI>
> 100 µM

$$$$
>  <compound>
CC(=O)C(C(=O)C(=O)Nc1cc(Cl)c(Cl)cc1Cl)c1csc(N)n1 (stereo not drawn)

>  <tested-target>
DMS 273 small cell lung

>  <TGI>
> 100 µM

$$$$
>  <compound>
CCOC(=O)C1=C(C)C2C3C(=O)OC(=O)C3C1(C)C1C(=O)OC(=O)C21 (stereo not drawn)

>  <tested-target>
DMS 273 small cell lung

>  <TGI>
> 100 µM

$$$$
>  <compound>
CC1=C(N2CC2)C(=O)C(C)=C(N2CC2)C1=O

>  <tested-target>
DMS 273 small cell lung

>  <TGI>
1.38 µM

$$$$

Returns the measured TGI for the input compound. Input: `O=[N+]([O-])c1cc(C(F)(F)F)cc2n[se]nc12` 27.3 µM

Requested field: TGI. Item: `COc1ccc(OC)c(CCc2ccccc2CC(=O)O)c1` > 100 µM

Suppose we examine the compound C=C1CCCC2OC(OC)CCC12 (stereo not drawn) ; what TGI value has been reported? > 100 µM

Given the entry O=C(O)C1Cc2[nH]c3ccccc3c2C2CCCC12 (stereo not drawn) , report its measured TGI. > 100 µM

What does the data say about its TGI? Entry: `Cc1cc(N(CCC#N)CCC#N)ccc1/C=C(\N=[N+]=[N-])C(=O)NC(=O)COc1ccccc1` > 100 µM

Item under review: `COc1cc2c(c(OC)c1)C(=O)C(=O)C(CC1(C)OCCCO1)=C2` . Reported TGI? 28.4 µM

Fill in: TGI of `CC(=O)CCn1[nH]c(=O)c(Cl)c(Cl)c1=O` is ___ > 100 µM

Fill in: TGI of `N#C/C(=C\c1ccccc1F)C(=O)c1ccccc1` is ___ > 100 µM

Data credit: PubChem BioAssay (NCI)
